- System: Moraxella catarrhalis
- method_notes: Antibacterial activity against beta lactamase-positive Moraxella catarrhalis by CLSI M7-A7 broth microdilution method
- Type: functional
Give MIC50 for every item shown.
Give bare numbers, in µg/mL.

Field: example entries. Status: answers known.
[[record]]
compound = "CC1(C)S[C@@H]2[C@H](NC(=O)Cc3ccccc3)C(=O)N2[C@H]1C(=O)O"
test_system = "Moraxella catarrhalis"
endpoint_label = "MIC50"
unit_of_measurement = "µg/mL"
value_reported = 4

[[record]]
compound = "CC(=O)NC[C@H]1CN(c2ccc(N3CCOCC3)c(F)c2)C(=O)O1"
test_system = "Moraxella catarrhalis"
endpoint_label = "MIC50"
unit_of_measurement = "µg/mL"
value_reported = 4

[[record]]
compound = "CCO/N=C(\\C(=O)N[C@@H]1C(=O)N2C(C(=O)[O-])=C(Sc3nc(-c4cc[n+](C)cc4)cs3)CS[C@H]12)c1nsc(NP(=O)(O)O)n1"
test_system = "Moraxella catarrhalis"
endpoint_label = "MIC50"
unit_of_measurement = "µg/mL"
value_reported = 0.06


Now let's try a different one.
Challenge: What value of MIC50 has been reported for the following molecule? Cc1onc(-c2ccccc2)c1C(=O)N[C@@H]1C(=O)N2[C@@H]1SC(C)(C)[C@@H]2C(=O)O
Response given: 4

* * *

- System: Moraxella catarrhalis
- method_notes: Antibacterial activity against beta lactamase-positive Moraxella catarrhalis by CLSI M7-A7 broth microdilution method
- Format: functional
Give MIC for every item shown.

[[record]]
compound = "C[C@@H](O)[C@H]1C(=O)N2C(C(=O)O)=C(SCCNC=N)C[C@H]12 [IMIPENEM ANHYDROUS]"
value_reported = "≤ 0.12 µg/mL"

[[record]]
compound = "CO/N=C(\\C(=O)N[C@@H]1C(=O)N2C(C(=O)O)=C(CSc3nc(=O)c(O)nn3C)CS[C@H]12)c1csc(N)n1 [CEFTRIAXONE]"
value_reported = "≤ 0.25 µg/mL"

[[record]]
compound = "CC(C)(O/N=C(\\C(=O)N[C@@H]1C(=O)N2C(C(=O)[O-])=C(C[n+]3ccccc3)CS[C@H]12)c1csc(N)n1)C(=O)O [CEFTAZIDIME]"
value_reported = "≤ 1 µg/mL"

[[record]]
compound = "CC[C@H]1OC(=O)[C@H](C)[C@@H](O[C@H]2C[C@@](C)(OC)[C@@H](O)[C@H](C)O2)[C@H](C)[C@@H](O[C@@H]2O[C@H](C)C[C@H](N(C)C)[C@H]2O)[C@](C)(O)C[C@@H](C)C(=O)[C@H](C)[C@@H](O)[C@]1(C)O [ERYTHROMYCIN]"
value_reported = "≤ 0.12 µg/mL"


Challenge: Kindly state the measured MIC obtained for C[C@H]1COc2c(N3CCN(C)CC3)c(F)cc3c(=O)c(C(=O)O)cn1c23.C[C@H]1COc2c(N3CCN(C)CC3)c(F)cc3c(=O)c(C(=O)O)cn1c23.O [LEVOFLOXACIN] with Moraxella catarrhalis.
Response given: ≤ 0.03 µg/mL

* * *

Give Activity for every item shown.
- System: Citrobacter freundii
- method_notes: Antibacterial activity against ceftazidime-susceptible Citrobacter freundii assessed as susceptible isolates by CLSI M7-A7 broth microdilution method
- Assay type: functional
Numbers only, in %.

Field: example entries. Status: answers known.
[[record]]
compound = "CC1(C)S[C@@H]2[C@H](NC(=O)[C@H](N)c3ccccc3)C(=O)N2[C@H]1C(=O)O"
test_system = "Citrobacter freundii"
value_reported = 36

[[record]]
compound = "CO/N=C(\\C(=O)N[C@@H]1C(=O)N2C(C(=O)O)=C(CSc3nc(=O)c(O)nn3C)CS[C@H]12)c1csc(N)n1"
test_system = "Citrobacter freundii"
value_reported = 100

[[record]]
compound = "CC(C)(O/N=C(\\C(=O)N[C@@H]1C(=O)N2C(C(=O)[O-])=C(C[n+]3ccccc3)CS[C@H]12)c1csc(N)n1)C(=O)O"
test_system = "Citrobacter freundii"
value_reported = 100

[[record]]
compound = "CCN1CCN(C(=O)N[C@@H](C(=O)N[C@@H]2C(=O)N3[C@@H]2SC(C)(C)[C@@H]3C(=O)O)c2ccccc2)C(=O)C1=O"
test_system = "Citrobacter freundii"
value_reported = 100

[[record]]
compound = "C[C@H]1COc2c(N3CCN(C)CC3)c(F)cc3c(=O)c(C(=O)O)cn1c23.C[C@H]1COc2c(N3CCN(C)CC3)c(F)cc3c(=O)c(C(=O)O)cn1c23.O"
test_system = "Citrobacter freundii"
value_reported = 98


Challenge: What value of Activity has been reported for the following compound? C[C@@H](O)[C@H]1C(=O)N2C(C(=O)O)=C(SCCNC=N)C[C@H]12 [IMIPENEM ANHYDROUS]
Response given: 100
